Target: T1, human A-beta(1-40) peptide, monomeric (BAM) (human, biotin at the C-terminus in capture ELISA, SPR and TR-FRET; not biotinylated where coated directly (Example 7))
T1 construct: synthetic peptide (Anaspec), TFA/HFIP treated to give monomer; also called monomeric A-beta
Assay: TR-FRET competition; labelled competitor not given
Some binders, each annotated with its measured pIC50.
Would you please state pIC50, meaning minus log10 of the concentration in mol/L, as a bare number?

binder | pIC50
ABII035 (VHH, humanized variant of ABII002) VHH: EVQLLESGGGLVQPGGSLRLSCVHSGPTFRTDTMGWFRQAPGKGREFVAAVTWNSGRINYADSVKGRFTISRDNSKNTAYLQMNSLRPEDTAVYYCAAHRFVVGGNRVEDWRYWGQGTLVTVSS | 8.40
ABII028 (VHH, humanized variant of ABII002) VHH: EVQLLESGGGLVQPGGSLRLSCVHSGPTFRTDTMGWFRQAPGKGREFVAAVTWNSGRINYADSVKGRFTISRDNSKNTVYLQMNSLRPEDTAVYYCAAHRFVVGGNRVEDWRYWGQGTLVTVSS | 7.96
ABII005 (VHH, humanized variant of ABII002) VHH: EVQLLESGGGLVLPGGSLRLSCAHSGPTFRTDTMGWFRQAPGKGREFVAAVTWNSGRINYADSVKGRFTVSRDNTRNAAYLQMSGLKDEDTAVYYCTAHRFVVGGNRVEDWRYWGQGTLVTVSS | 8.48

In one line, give reported pIC50 of the entry ABII60A10 = ABII050 (VHH) VHH: EVQLVESGGGLVQAGGSLRLSCAASGRTFNNYNMGWFRQAPGKEREFVAAVSRSGVSTYYADSVKGRFTISRDNAKNAVYLQMNSLKPEDTAIYYCGAAYRGTAINVRRSYDSWGQGTQVTVSS .
7.72
